Assay: chemical genetic growth profiling, strain panel (AID 1159580);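 also: tested at 20 µM; growth read once vehicle control cultures reached saturation at 30 °C; 1 = growth at the plate median or of vehicle wells; lower values mean less growth of the strain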
Conditions: S. cerevisiae deletion strains, growth OD, locus YNL128W, strain TEP1, active compounds read low
In all, about 5,500 compounds went through this assay and about 2,000 (36%) were called active. About 18% were inconclusive and are not listed. Some of the results follow.
Listing of entries alongside the reported normalized growth.
Just the number, please.

Previously resolved entries follow.
CC1(C)C(O)CC(O)C2(C)C1CC(O)C1(C)C2CCC2(C)C(c3ccoc3)CC3OC321 (centres undefined)	0.998
Nc1ncnc2c1ncn2C1O[C@H](COP(=O)(O)O)[C@@H](O)[C@H]1O (some centres undefined)	1.02
COc1ccc(-c2ccnc(SCC(=O)NCCSCc3ccco3)n2)cc1	0.999
CC(=O)O[C@@H]1C[C@@]2(C)[C@H](c3ccoc3)C[C@H]3O[C@]32[C@]2(C)C(=O)C(O)=C3C(C)(C)C(=O)C=C[C@]3(C)C12 (some centres undefined)	0.914
CN/C(=C\[N+](=O)[O-])NCCSCc1ccc(CN(C)C)o1	1.02

# normalized growth lookup, item CC1(C)C(=O)C=CC2(C)C3CCC4(C)C(c5ccoc5)CC5OC54C3C(O)CC12 (centres undefined) 0.972

Similarly, CC(=O)O[C@@H]1CC2C(C)(C)C=CC(=O)[C@]2(C)C2CC[C@@]3(C)[C@H](c4ccoc4)OC(=O)C4OC43[C@@]21C (some centres undefined) ? 1.02

What do we get for "O=S(=O)(N/N=C\c1ccc(Cl)cc1)c1ccc(-c2ccccn2)s1" ? 0.975

How about C1CCN2CC3CC(CN4CCCCC34)C2C1 (centres undefined) ? 1.01

---

Test: chemical genetic growth profiling, strain panel (AID 1159580)
Conditions: S. cerevisiae deletion strains, growth OD, locus YOR231W, strain MKK1, active compounds read low
Out of some 5,500 compounds screened, about 2,000 (36%) were called active. Another 18% or so got no clear call; they are omitted. The list shows a part of the results.
testReadout: normalized growth
Answer field: number only, no words.

NC(=Nc1ccc(F)cc1)SCc1c(Cl)cccc1Cl	0.985

Please give the measured normalized growth for this molecule: C[C@H]1[C@H]2CCC3C4CC=C5C[C@@H](N(C)C)CC[C@]5(C)C4CC[C@@]32CN1C (stereo partly specified) 1.01

Query "CSc1cc(-c2ccncc2)nc(-c2cccs2)c1" next 0.921

# repeat for "CC(=O)NCCCS(=O)(=O)O" 1.02

---

Assay: chemical genetic growth profiling, strain panel (AID 1159580)
Conditions: S. cerevisiae deletion strains, growth OD, locus YKL085W, strain MDH1
Among all 5,500 compounds or so, about 2,000 (36%) were called active. Inconclusive results (about 18%) are left out. Cut-off read from the data, not from the text of the source: active = normalized growth mostly below about 0.91 (no sharp cut-off); inconclusive = no clear call, values can overlap the other calls; inactive = mostly above about 0.92. This is one part of the list.
Answer with one of the outcomes active, inactive

NCCCC[C@H](N[C@@H](CCc1ccccc1)C(=O)O)C(=O)N1CCC[C@H]1C(=O)O	inactive

Recorded call for CCCC1O[C@@H]2CC3C4CCC5=CC(=O)C=CC5(C)C4[C@@H](O)CC3(C)[C@]2(C(=O)CO)O1 (stereo partly drawn) ? inactive

Try this molecule too: "O=C(O[C@@H]1Cc2c(O)cc(O)cc2O[C@@H]1c1cc(O)c(O)c(O)c1-c1c([C@H]2Oc3cc(O)cc(O)c3C[C@H]2O)cc(O)c(O)c1O)c1cc(O)c(O)c(O)c1" inactive

---

Each entry below carries its recorded normalized growth.
Experiment: chemical genetic growth profiling, strain panel (AID 1159580)
Conditions: S. cerevisiae deletion strains, growth OD, locus YOR080W, strain dia2, active compounds read low
Among all 5,500 compounds or so, about 2,000 (36%) were called active. About 18% were inconclusive and are not listed. The list shows a part of the results.
# print the numeric value only

Consider the following illustrative entries.
COC(=O)C[C@H]1C(C)(C)C(=O)[C@@H]2CC3=C4CC(=O)O[C@@H](c5ccoc5)[C@]4(C)CCC3[C@@]1(C)C2=O (stereo not given in full)	0.995
CCN(CC)CCOc1ccc(/C(=C(\Cl)c2ccccc2)c2ccccc2)cc1	0.289
COc1cc2c(c(OC)c1OC)-c1ccc(OC)c(=O)cc1[C@@H](NC(C)=O)CC2	1.02
Cc1ccsc1/C=C/C1=NCCCN1C	0.989
C1CCN2CC3CC(CN4CCCCC34)C2C1 (stereo not given)	1.02
CC/C(=C(\c1ccccc1)c1ccc(OCCN(C)C)cc1)c1ccccc1	0.408

# get_value(readout='normalized growth', item= "COC(C)(C)CCC[C@H](C)C/C=C/C(C)=C/C(=O)OC(C)C" ) 1.02

Now give it for "CC(=O)/C(=C\c1ccccc1)CC(=O)O" too. 0.99

Same question, "CN[C@H](CC(=O)O)C(=O)O" this time 1.03

Next molecule: "Cc1ccc2c(Cl)cc(Cl)c(O)c2n1" 1.02

Now consider "O=[N+]([O-])c1ccc(O)c([N+](=O)[O-])c1" . 0.812

---

Assay: chemical genetic growth profiling, strain panel (AID 1159580)
Conditions: S. cerevisiae deletion strains, growth OD, locus YGR040W, strain KSS1, active compounds read low
Among all 5,500 compounds or so, about 2,000 (36%) were called active. About 18% were inconclusive and are not listed. This is one part of the list.
normalized growth overview
The answer should be a number; do not append a unit.

These solved cases illustrate the format of a correct answer.
S=C(N/N=C\c1ccc(Cl)cc1)N/N=C\c1ccc(Cl)cc1	0.849
CSc1cc(-c2ccncc2)nc(-c2cccs2)c1	0.928
OC(CNCc1ccc(Cl)cc1)CO/N=C\C1=C(Cl)c2cc(Cl)ccc2OC1 (stereo unspecified)	0.97
CCOC(=O)C1=C(N)OC2=C(C(=O)CC(C)(C)C2)C1c1ccc(Cl)cc1Cl (stereo unspecified)	0.954
O=C(NC(=O)c1c(F)cccc1Cl)OCc1ccc(Cl)cc1Cl	0.9
CC(=O)Nc1ccc([N+](=O)[O-])cc1[N+](=O)[O-]	0.206
O=[N+]([O-])c1ccccc1CS(=O)(=O)c1nc2ccccc2s1	0.791
O=C(Nc1ccc(N2CCOCC2)cc1)c1ccc(-n2cccn2)cc1	0.953
N#CC(C#N)=C/C=C(/Sc1nc2ccccc2s1)c1ccc(Br)cc1	0.156
COC(=O)C1=C(C)NC(C)=C(C(=O)OC)C1c1ccc(Cl)cc1Cl	0.914

Requested field: normalized growth. Item: "CC(C)c1ccc(NC(=S)NC(=O)c2ccccc2)cc1" 0.918

---

Test: chemical genetic growth profiling, strain panel (AID 1159580);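 also: tested at 20 µM; growth read once vehicle control cultures reached saturation at 30 °C; 1 = growth at the plate median or of vehicle wells; lower values mean less growth of the strain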
Conditions: S. cerevisiae deletion strains, growth OD, locus YJL164C, strain tpk1, active compounds read low
Out of some 5,500 compounds screened, about 2,000 (36%) were called active. Not shown: some 18% with an inconclusive outcome. Some of the results follow.
Reported normalized growth is given for each of the following compounds.
No unit in the answer, please; the number alone is enough.

Study these solved cases before continuing.
C[n+]1cccc(C(=O)[O-])c1	0.985
CCCC(C)C1(CC)C(=O)N=C(S)NC1=O (stereo not drawn)	0.995
Cc1ccsc1/C=C/C1=NCCCN1C	0.99
OC[C@@H]1CCCN2CCCC[C@H]12	1.02
CCCC(C)C1(CC)C(=O)NC(=O)NC1=O (stereo not drawn)	1.01

Need normalized growth of "Nc1ccc(C(=O)NCC(=O)O)cc1" , thanks. 1.01

Subsequent entry: "CN/C(=C\[N+](=O)[O-])NCCSCc1ccc(CN(C)C)o1" 0.996

What do you have for "COc1cc2c(c(OC)c1OC)-c1ccc(OC)c(=O)cc1[C@@H](NC(C)=O)CC2" ? 0.984

---

Experiment: chemical genetic growth profiling, strain panel (AID 1159580);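 also: tested at 20 µM; growth read once vehicle control cultures reached saturation at 30 °C; 1 = growth at the plate median or of vehicle wells; lower values mean less growth of the strain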
Conditions: S. cerevisiae deletion strains, growth OD, locus YNL298W, strain CLA4
Out of some 5,500 compounds screened, about 2,000 (36%) were called active. Another 18% or so got no clear call; they are omitted. Cut-off read from the data, not from the text of the source: active = normalized growth mostly below about 0.91 (no sharp cut-off); inconclusive = no clear call, values can overlap the other calls; inactive = mostly above about 0.92. Some of the results follow.
Output constraint: value belongs to Y for active, N for inactive

Study these solved cases before continuing.
Nc1ncnc2c1ncn2[C@@H]1O[C@H](CO)[C@@H](O)[C@H]1O	N
Nc1ncnc2c1ncn2C1O[C@H](COP(=O)(O)O)[C@@H](O)[C@H]1O (some centres not stated)	N
CCOP(=S)(OCC)SCn1c(=O)oc2cc(Cl)ccc21	N
Nc1nc2c(ncn2C2C[C@H](O)[C@@H](CO)O2)c(=O)[nH]1 (some centres not stated)	N
Oc1c(Br)cc(Br)c2cccnc12	Y

Given CC(C)(C)NCC(O)c1ccccc1Cl (configuration not stated) , state the outcome it received in this test. N

Field entry: "COc1cc2c(c(OC)c1OC)-c1ccc(OC)c(=O)cc1[C@@H](NC(C)=O)CC2" N

---

Experiment: chemical genetic growth profiling, strain panel (AID 1159580);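 also: tested at 20 µM; growth read once vehicle control cultures reached saturation at 30 °C; 1 = growth at the plate median or of vehicle wells; lower values mean less growth of the strain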
Details: S. cerevisiae deletion strains, growth OD, locus YNL128W, strain TEP1
Screen size: about 5,500 compounds; about 2,000 (36%) were called active. Not shown: some 18% with an inconclusive outcome. No stated cut-off is given here; in the data, active means normalized growth mostly below about 0.91 (no sharp cut-off); inconclusive means no clear call, values can overlap the other calls; inactive means mostly above about 0.92. This is one part of the list.
Choose the fitting class; nothing outside active, inactive is accepted.

How did this test come out for CC(=O)OCC1(C)CCC2(C)CCC3(C)C4=CCc5c(cc(OC(C)=O)c(OC(C)=O)c5C)C4(C)CCC3(C)C2C1 (stereo not drawn) ? inactive

Same question, "O=C(N/N=C\c1cccs1)c1ccccc1CO" this time inactive

Same question for "O=C(N/N=C\C=C\c1ccccc1)c1ccccc1-n1cccc1" please. inactive

Try C[C@H]1[C@H]2CCC3C4CC=C5C[C@@H](N(C)C)CC[C@]5(C)C4CC[C@@]32CN1C (stereo partly drawn) next. inactive

Subsequent entry: "NC(=S)N/N=C\c1cccs1" inactive

Nc1nc(Cl)nc2c1ncn2[C@@H]1O[C@H](COP(=O)(O)OP(=O)(O)OP(=O)(O)O)[C@H](O)C1O (stereo partly drawn) , same question. inactive

Proceed to "O=C(NC(=S)NCc1ccncc1)c1ccccc1" inactive

Also check "O=C(NCCSCc1ccco1)c1ccc(Cl)cc1" inactive

Same lookup for "CC(C)c1ccc(NC(=S)NC(=O)c2ccc(C(F)(F)F)cc2)cc1" , please. inactive
